Test: Binding affinity to ribosome nascent peptide exit tunnel in rabbit reticulocyte extract assessed as inhibition of eukaryotic translation in presence of amino acids incubated for 20 mins by luciferase reporter gene assay
Design: species or system Oryctolagus cuniculus
measurement.name: IC50

[[record]]
smiles_structure = "CC[C@H]1OC(=O)[C@H](C)[C@@H](O[C@H]2C[C@@](C)(OC)[C@@H](O)[C@H](C)O2)[C@H](C)[C@@H](O[C@@H]2O[C@H](C)C[C@H](N(C)C)[C@H]2O)[C@](C)(O)C[C@@H](C)CN(Cc2ccc(-c3cn(CCn4ccc5cc(F)ccc54)nn3)cc2)[C@H](C)[C@@H](O)[C@]1(C)O"
measurement_name = "IC50"
experimental_result = "> 250 µM"

[[record]]
smiles_structure = "CC[C@H]1OC(=O)[C@H](C)[C@@H](O[C@H]2C[C@@](C)(OC)[C@@H](O)[C@H](C)O2)[C@H](C)[C@@H](O[C@@H]2O[C@H](C)C[C@H](N(C)C)[C@H]2O)[C@](C)(O)C[C@@H](C)CN(Cc2ccc(-c3cn(CCc4cn(C)c5ccccc45)nn3)cc2)[C@H](C)[C@@H](O)[C@]1(C)O"
measurement_name = "IC50"
experimental_result = "> 250 µM"


Here is another molecule to look at.
Which measured IC50 value corresponds to "CC[C@H]1OC(=O)[C@H](C)[C@@H](O[C@H]2C[C@@](C)(OC)[C@@H](O)[C@H](C)O2)[C@H](C)[C@@H](O[C@@H]2O[C@H](C)C[C@H](N(C)C)[C@H]2O)[C@](C)(O)C[C@@H](C)CN(CCCCc2cn(CCc3c[nH]c4ccc(Cl)cc34)nn2)[C@H](C)[C@@H](O)[C@]1(C)O" ?
> 250 µM

---

molecules and their reported pIC50
Assay: Binding affinity to ribosome nascent peptide exit tunnel in rabbit reticulocyte extract assessed as inhibition of eukaryotic translation in presence of amino acids incubated for 20 mins by luciferase reporter gene assay
Set-up: species or system Oryctolagus cuniculus
pIC50: −log10 of the molar value.

[[record]]
smiles_structure = "CC[C@H]1OC(=O)[C@H](C)[C@@H](O[C@H]2C[C@@](C)(OC)[C@@H](O)[C@H](C)O2)[C@H](C)[C@@H](O[C@@H]2O[C@H](C)C[C@H](N(C)C)[C@H]2O)[C@](C)(O)C[C@@H](C)CN(CCCCc2cn(CCn3ccc4cc(F)ccc43)nn2)[C@H](C)[C@@H](O)[C@]1(C)O"
experimental_result = "< 3.60"

[[record]]
smiles_structure = "CC[C@H]1OC(=O)[C@H](C)[C@@H](O[C@H]2C[C@@](C)(OC)[C@@H](O)[C@H](C)O2)[C@H](C)[C@@H](O[C@@H]2O[C@H](C)C[C@H](N(C)C)[C@H]2O)[C@](C)(O)C[C@@H](C)CN(CCCCc2cn(CCc3c[nH]c4ccc(F)cc34)nn2)[C@H](C)[C@@H](O)[C@]1(C)O"
experimental_result = "< 3.60"


Here is another molecule to look at.
Which measured pIC50 value corresponds to "CC[C@H]1OC(=O)[C@H](C)[C@@H](O[C@H]2C[C@@](C)(OC)[C@@H](O)[C@H](C)O2)[C@H](C)[C@@H](O[C@@H]2O[C@H](C)C[C@H](N(C)C)[C@H]2O)[C@](C)(O)C[C@@H](C)CN(CCCCc2cn(CCN3CCc4ccccc43)nn2)[C@H](C)[C@@H](O)[C@]1(C)O" ?
< 3.60

Value source: ChEMBL document CHEMBL3600351
